- measured-on: Arginase-2, mitochondrial (Homo sapiens)
- method-summary: in vitro enzyme assay to detect the production of urea directly proportional to the activity of Arginase II; also: in the data most compounds retested in dose-response had high values
- Type: functional
- Set-up: scale not given: direction of the effect not stated beside the values
- condition-info: 33.3 µM
reported-endpoint: Percent Effect (%)
Answers are plain numbers, in %.

Worked cases, answers included:
CCOCC(O)CN1CCN(C(=O)Cc2ccc3c(c2)CCO3)CC1 (centres undefined) : 6.51
O=C1N(Cc2cccnc2)CCC12CCCNC2 (centres undefined) : 0.913
CCS(=O)(=O)NC[C@]12COC[C@H]1CN(Cc1cc(C)on1)C2 : 4.14
Cc1ncccc1OCC(=O)N1CCN[C@H]2CS(=O)(=O)C[C@H]21 : 4.71
COc1c(Br)cc(Br)cc1CNC(C)Cn1cccn1 (centres undefined) : -3.56
CCN1C[C@H]2C[C@H](C(=O)NCc3cccnc3)[C@@H](C1)O2 : 2.23
Cc1cc(CC(=O)N2CCN(CC3CC3)[C@@H]3CS(=O)(=O)C[C@@H]32)ccc1F : 3.53
c1ccc(CN2CC[C@]3(C[C@@H](Oc4ccccn4)CO3)C2)nc1 : 0.233

Would you kindly look at the next entry?
// query Return reported Percent Effect. Input compound: Cc1cc(CN2C[C@@H]3COC[C@]3(CNC(=O)c3ccno3)C2)no1
// result 8.6

----------
- measured-on: Shiga toxin 2 (Escherichia coli O157:H7) (UniProt P09385+P09386)
- method-summary: E. coli 0.157:H7 Shiga Toxin SOP - stx2 screening assay
- Format: functional
- Set-up: scale not given: direction of the effect not stated beside the values
- condition-info: 30 µM
Give measured Percent Effect for each item. Keep answers brief.
Answers are plain numbers, in %.

Worked cases, answers included:
CCCc1noc(CN2CCCC2c2c(C)nn(C)c2OC)n1 (stereo not drawn) : 4.3
CCc1nc(CN2CCCC(NCc3nc4cccnc4[nH]3)C2)no1 (stereo not drawn) : -27.7
CC(COc1ccc(F)cc1F)NC(=O)NCCN1CCOCC1 (stereo not drawn) : -3.82
Cc1cccc(C)c1OCCC(=O)N1CCC(c2nncn2C)CC1 : -9.22
Cn1cc(CN2CCC3(CCCN(Cc4ccccn4)C3)CC2)cn1 : -6.22
CN(Cc1ccc(F)cc1)CC1(O)CCN(C(=O)c2ccccc2)C1 (stereo not drawn) : -6.1

Would you be so kind as to report Percent Effect for each listed record?
1. CCn1cc(CN2CCCn3nc(CNC(=O)C4CCC4)cc3C2)cn1
2. CCc1c(C)nc2n(c1=O)CC(C(=O)Nc1nccs1)CS2 (stereo not drawn)
3. Cc1ccc(CN2CC(C(=O)N3CCCC3)C3(CCOCC3)C2)s1 (stereo not drawn)
4. CC(O)CN1CCN(C(=O)c2ccc(Cn3cccc3)cc2)CC1 (stereo not drawn)
5. Cc1noc(C(C)C)c1C(=O)NCC(c1cccc(F)c1)N(C)C (stereo not drawn)

// result
1. -31
2. -29.4
3. -7.63
4. 19.4
5. 8.91

Would you be so kind as to report Percent Effect for each listed record?
1. CCS(=O)(=O)N1CCC(c2nc3ccc(-c4ccccc4)cn3n2)CC1
2. CC(=O)c1cn(CCC(=O)N[C@H](C(=O)O)C(C)C)c2ccccc12

// result
-35.2
-36.7

----------
- measured-on: Aspartate--tRNA(Asp/Asn) ligase (Mycobacterium tuberculosis (strain ATCC 25618 / H37Rv))
- method-summary: Assay for Asp RNA synthetase-1 from Mycobacterium tuberculosis
- Type: functional
- Set-up: scale not given: direction of the effect not stated beside the values
- condition-info: 30 µM
Give measured Percent Effect for each item. Keep answers brief.
Give bare numbers, in %.

CCc1cnc(N2CCC(=O)N(CC3CC3)C(C(C)C)C2)nc1 (stereo not drawn) : 1.33
Cc1cccc(CN2C[C@@H]3COC[C@]3(COc3ccc(C#N)cn3)C2)n1 : -4.33

// query Return reported Percent Effect. Input compound: CC(C)C(=O)N1CCN(Cc2cc(-c3ccncc3)nn2C)CC1
// result 0.491

----------
- measured-on: Aspartate--tRNA(Asp/Asn) ligase (Mycobacterium tuberculosis (strain ATCC 25618 / H37Rv))
- Sequence (whole entry): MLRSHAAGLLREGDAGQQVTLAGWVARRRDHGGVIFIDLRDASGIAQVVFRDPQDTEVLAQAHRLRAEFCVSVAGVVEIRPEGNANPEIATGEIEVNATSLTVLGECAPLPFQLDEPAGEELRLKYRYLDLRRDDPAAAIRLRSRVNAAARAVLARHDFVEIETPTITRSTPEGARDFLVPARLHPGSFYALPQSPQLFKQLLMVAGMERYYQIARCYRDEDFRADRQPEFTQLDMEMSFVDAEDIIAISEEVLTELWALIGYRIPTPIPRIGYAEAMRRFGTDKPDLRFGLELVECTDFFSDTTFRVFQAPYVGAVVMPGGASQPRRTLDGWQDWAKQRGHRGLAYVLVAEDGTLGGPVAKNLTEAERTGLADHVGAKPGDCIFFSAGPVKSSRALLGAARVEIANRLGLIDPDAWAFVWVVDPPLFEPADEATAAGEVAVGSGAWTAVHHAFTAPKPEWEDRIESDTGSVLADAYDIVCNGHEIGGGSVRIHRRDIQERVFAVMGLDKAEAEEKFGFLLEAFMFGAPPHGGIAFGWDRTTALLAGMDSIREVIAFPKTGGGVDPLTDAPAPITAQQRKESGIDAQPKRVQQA
- method-summary: Assay for Asp RNA synthetase-1 from Mycobacterium tuberculosis
- Assay type: functional
- Parameters: scale not given: direction of the effect not stated beside the values
- condition-info: 30 µM
Give measured Percent Effect for each item. Keep answers brief.
One number for each entry, in %.

Worked cases, answers included:
Cc1cccc(OCCC(=O)N(C)CCNS(C)(=O)=O)c1C : 0.299
CNC(=O)CS(=O)(=O)Cc1coc(-c2ccc(F)cc2)n1 : -1.26
O=C(C1=CCCC1)N1CCO[C@H]2[C@@H](OCC3CC3)CC[C@@H]21 : 2.53
CN(Cc1nnc2n1CCC2)C(=O)Cc1ccc2c(c1)OCCO2 : 4.23

Would you be so kind as to report Percent Effect for each listed record?
1. COc1ccc(C2CCCN2C(=O)c2csc(NC(C)=O)n2)cc1 (stereo not given)
2. CCn1cc(CN2CC3CCCN3C[C@H]2C)c(C)n1 (stereo not given in full)
3. N#Cc1ccc(OCCNc2cccc(C(=O)N3CCOCC3)c2)cc1
4. CCCc1n[nH]cc1C(=O)N1CCC(c2nccn2CCOC)CC1
5. CCOCC1CN(C(=O)CS(C)(=O)=O)Cc2cnn(C)c21 (stereo not given)

// result
[0.516, 1.26, 1.46, -6.36, 1.19]

Would you be so kind as to report Percent Effect for each listed record?
1. O=C(Nc1cc(F)ccc1OCC1CCCO1)N1CCCC1 (stereo not given)
2. CC(C)n1ccnc1C1CCN(C(=O)c2cc[nH]n2)CC1
3. COc1ccc(C(=O)N2CCCC(C)C2)cc1F (stereo not given)
4. COc1cccc(-c2nc(CNCCn3cccn3)cs2)c1

// result
[-3.7, -0.496, 0.26, -2.68]

Would you be so kind as to report Percent Effect for each listed record?
1. CC(O)CN1CCC(CNCc2cccc(C(N)=O)c2)CC1 (stereo not given)
2. FC(F)(F)Cn1ccnc1CN1CCCC1c1noc(C2CC2)n1 (stereo not given)
3. CCCC(NC(=O)c1cc(C)ccc1C)c1nnn[nH]1 (stereo not given)
4. CS(=O)(=O)Cc1cccc(C(=O)NCC2Cc3ccccc3O2)c1 (stereo not given)
5. Cc1ccc([C@@H]2CN(S(=O)(=O)c3cccs3)C[C@H]2N(C)C)cc1

// result
-0.954
11.5
-2.52
8.39
-0.804

Would you be so kind as to report Percent Effect for each listed record?
1. O=c1ccc(-c2cccs2)nn1CN1CCN(Cc2ccccc2)CC1
2. CC(=O)NCCNC(=O)c1cnc(-c2ccccc2)nc1
3. FC(F)(F)C1CCCn2c(CNCc3ccsc3)nnc21 (stereo not given)
4. CN1CCCC1CNC(=O)CCCOc1ccc(F)cc1 (stereo not given)
5. NC(=O)CN1CCC(C(=O)N2CCCC(OCc3cccnc3)C2)CC1 (stereo not given)
6. CCc1nc(NS(=O)(=O)c2cc(C)ccc2F)no1
7. Cc1nc(CN(C)C2CCN(Cc3ccc4ccccc4n3)C2)no1 (stereo not given)

// result
1: -1.1; 2: 4.64; 3: -1.78; 4: -1.43; 5: -13.4; 6: -2.52; 7: 3.73

----------
- measured-on: Aspartate--tRNA(Asp/Asn) ligase (Mycobacterium tuberculosis (strain ATCC 25618 / H37Rv))
- Sequence (whole entry): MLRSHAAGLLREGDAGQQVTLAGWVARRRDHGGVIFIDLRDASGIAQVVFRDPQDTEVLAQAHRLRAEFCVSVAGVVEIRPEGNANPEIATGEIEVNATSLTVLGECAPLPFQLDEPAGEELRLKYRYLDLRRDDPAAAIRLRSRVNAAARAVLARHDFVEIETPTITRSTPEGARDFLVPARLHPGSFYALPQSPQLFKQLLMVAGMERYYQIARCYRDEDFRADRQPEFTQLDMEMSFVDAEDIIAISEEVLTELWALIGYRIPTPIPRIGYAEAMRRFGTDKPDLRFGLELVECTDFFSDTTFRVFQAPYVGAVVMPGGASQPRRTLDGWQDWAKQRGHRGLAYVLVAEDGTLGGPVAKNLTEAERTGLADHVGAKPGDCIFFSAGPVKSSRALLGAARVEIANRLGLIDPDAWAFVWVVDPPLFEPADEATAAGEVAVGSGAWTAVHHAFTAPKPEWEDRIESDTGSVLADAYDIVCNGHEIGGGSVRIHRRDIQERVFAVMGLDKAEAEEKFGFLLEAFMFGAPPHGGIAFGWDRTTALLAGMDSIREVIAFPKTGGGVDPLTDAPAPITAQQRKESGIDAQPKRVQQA
- method-summary: Assay for Asp RNA synthetase-1 from Mycobacterium tuberculosis
- Type: functional
- Design: scale not given: direction of the effect not stated beside the values
- condition-info: 30 µM
Give measured Percent Effect for each item. Keep answers brief.
Give bare numbers, in %.

Cc1cc(NC(=O)NCCc2ccsc2)n(C)n1 : -9.16

Would you be so kind as to report Percent Effect for each listed record?
1. CS(=O)(=O)N[C@@H]1CN(C(=O)c2ccccn2)[C@@H]2CCCO[C@@H]21
2. Cc1cnccc1N1CCCN(C(=O)CCCS(N)(=O)=O)CC1

// result
-4.14
-1.55

Would you be so kind as to report Percent Effect for each listed record?
1. Cc1ccc(C(=O)NC2CCN(Cc3noc(CC(C)C)n3)CC2)s1
2. Fc1ccc(-c2cnc(CN3CCCC3Cn3cccn3)o2)cc1 (stereo unspecified)

// result
1. 7.55
2. -1.83

Would you be so kind as to report Percent Effect for each listed record?
1. CCN(CC)C(=O)c1ccc(NC(=O)CNc2ccc(Br)cc2F)cc1
2. CSC(C)C(=O)N1CCCN(Cc2cnn(C(C)C)c2)CC1 (stereo unspecified)
3. CCCOCC(=O)NS(=O)(=O)c1ccc2c(c1)OCCCO2
4. O=C(CSc1ncccn1)N1C[C@H]2CC[C@@H]1CN(Cc1ccncc1)C2
5. Cc1nc(C)n(CC2CCCN(Cc3nc(C)c(C)o3)C2)n1 (stereo unspecified)

// result
1. 0.958
2. -0.235
3. 1.8
4. 3.45
5. 7.92

// query Return reported Percent Effect. Input compound: CS(=O)(=O)NCCNC(=O)C1(c2cccc(Cl)c2)CC1
// result -2.17
